System: P388 leukemia ip, CD2F1 mice, survival T/C
Experiment Notes: NCI In Vivo Anticancer Drug Screen. Data for tumor model P388 Leukemia (intraperitoneal) in CD2F1 (CDF1) mice
Applied Conditions: endpoint: median survival time; dose: 100.0 mg/kg/injection; schedule: Q01DX005 (ip); vehicle: saline; higher = longer survival
Toxic doses and inconclusive results are not listed.
Measured Endpoint: T/C

COC(=O)c1n[nH]nc1CC(N)=O :: 105 % of control
O=[N+]([O-])c1nccn1CC(O)CCN1CCOCC1 (configuration not stated) :: 102 % of control
CSCCC(C(=O)O)N(CCC#N)CCC#N (configuration not stated) :: 102 % of control
OCCCCC1COC(CC2OCC(CCCCO)O2)O1 (configuration not stated) :: 100 % of control
CN1NC(C2NN(C)C(=O)N(C)N2)NN(C)C1=O :: 102 % of control
CCN(CC)CCCC(C)Nc1ncnc2ccc(OC)cc12 (configuration not stated) :: 99 % of control
CC(=O)NC1C(Nc2ccc(S(=O)(=O)Nc3cc(C)nc(C)n3)cc2)OC(CO)C(O)C1O (configuration not stated) :: 98 % of control
CC1OC(OC2C(Oc3cc(O)c4c(c3)OC(c3ccc(O)cc3)CC4=O)OC(CO)C(O)C2O)C(O)C(O)C1O (configuration not stated) :: 97 % of control
C1CCC(NC2CCCCC2)CC1 :: 93 % of control
CC(=O)/C(=C/c1ccc(OC2OC(CO)C(O)C(O)C2O)cc1)C(=O)CCN(C)C (configuration not stated) :: 93 % of control
CNC(=O)c1nn(C)c(=O)[nH]c1=O :: 103 % of control
CC(C)C1OCN2CCCCC12 (configuration not stated) :: 108 % of control
